Data credit: the supplement of paper PMC8728848

TESTED_SYSTEM: Gal(b1-3)GalNAc(a1-3)[Fuc(a1-2)]Gal(b1-4)GlcNAc
ASSAY_METHOD_TEXT: glycan array binding signal (z-score within array); higher = stronger binding
CONDITION_INFO: glycan notation: IUPAC condensed, linker removed
The full list was thinned out, with the strongest signals kept by preference.
TEST_READOUT: glycan array binding signal (z-score)

binder="Epa22 (Candida glabrata) (protein) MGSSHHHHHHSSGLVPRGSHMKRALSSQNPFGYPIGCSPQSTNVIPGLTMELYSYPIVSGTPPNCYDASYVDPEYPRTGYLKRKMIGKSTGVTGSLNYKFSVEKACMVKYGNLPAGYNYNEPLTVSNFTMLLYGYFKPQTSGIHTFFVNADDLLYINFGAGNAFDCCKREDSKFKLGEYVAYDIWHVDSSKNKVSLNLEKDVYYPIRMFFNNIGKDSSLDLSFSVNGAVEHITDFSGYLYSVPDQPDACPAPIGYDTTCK" assay_value=-0.36
binder="SSR2 (Sclerotium rolfsii) (protein) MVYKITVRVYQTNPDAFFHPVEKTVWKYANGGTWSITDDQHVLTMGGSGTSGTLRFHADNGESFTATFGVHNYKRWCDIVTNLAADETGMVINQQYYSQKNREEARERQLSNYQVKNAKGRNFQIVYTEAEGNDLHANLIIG" assay_value=2.96
